# test summary: Selectivity as the ratio of Kass value towards fXa to that of UK.
endpoint name: Ratio

[ask] I have this molecule here, CC(C)c1ccc(C(=O)Nc2cc(OCC(=O)O)ccc2NC(=O)c2cccc(C(=N)N)c2)cc1 , and I need its recorded Ratio.
[reply] 340000

[ask] Fill in the blank: the reported Ratio of CC(C)(C)c1ccc(C(=O)Nc2ccccc2NC(=O)c2cccc(C(=N)N)c2)cc1 is ____.
[reply] > 250000

[ask] Could you share which Ratio value was measured for COc1ccc(C(=O)Nc2ccccc2NC(=O)c2cccc(C(=N)N)c2)cc1 ?
[reply] 15000

[ask] Need Ratio of CC(C)(C)c1ccc(C(=O)Nc2cc(C(=O)O)ccc2NC(=O)c2cccc(C(=N)N)c2)cc1 , thanks.
[reply] 470000

----------
Exercise: for every item that follows, state its recorded K ass.
# experimental target: Vitamin K-dependent protein C (Homo sapiens) (UniProt P04070)
# Sequence (P04070 43-197 limits assumed): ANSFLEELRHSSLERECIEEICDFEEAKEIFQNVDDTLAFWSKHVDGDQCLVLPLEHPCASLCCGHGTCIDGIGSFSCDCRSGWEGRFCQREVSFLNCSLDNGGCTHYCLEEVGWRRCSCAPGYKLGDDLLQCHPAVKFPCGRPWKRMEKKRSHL
# Sequence (P04070 212-461 limits assumed): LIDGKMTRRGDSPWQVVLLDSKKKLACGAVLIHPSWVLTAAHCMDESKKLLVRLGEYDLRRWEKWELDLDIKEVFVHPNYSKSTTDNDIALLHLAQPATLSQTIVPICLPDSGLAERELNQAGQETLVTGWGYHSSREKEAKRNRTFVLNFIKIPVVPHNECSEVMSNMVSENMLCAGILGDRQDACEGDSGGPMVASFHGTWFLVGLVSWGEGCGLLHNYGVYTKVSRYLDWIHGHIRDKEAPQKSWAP
# test summary: Tested for inhibition of activated protein C

[ask] What value of K ass has been reported for the following compound? CC(C)(C)c1ccc(C(=O)Nc2ccccc2NC(=O)c2cccc(C(=N)N)c2)cc1
[reply] 2000 l M-1

[ask] Requested field: K ass. Item: CC(C)c1ccc(C(=O)Nc2cc(OCC(=O)O)ccc2NC(=O)c2cccc(C(=N)N)c2)cc1
[reply] 14000 l M-1

[ask] Data request, read-out K ass, for COc1ccc(C(=O)Nc2ccccc2NC(=O)c2cccc(C(=N)N)c2)cc1
[reply] 15000 l M-1

[ask] Quick one: K ass for CC(C)(C)c1ccc(C(=O)Nc2cc(C(=O)O)ccc2NC(=O)c2cccc(C(=N)N)c2)cc1 ?
[reply] 13000 l M-1

----------
# test summary: Selectivity as the ratio of Kass value towards fXa to that of tissue plasminogen activator.
Kindly state Ratio for each of the entries shown.
The response must contain the number and no unit.

[ask] If you can, please state the reported Ratio value of CC(C)(C)c1ccc(C(=O)Nc2ccccc2NC(=O)c2cccc(C(=N)N)c2)cc1 .
[reply] 23000

[ask] // Ratio lookup, key: CC(C)(C)c1ccc(C(=O)Nc2cc(C(=O)O)ccc2NC(=O)c2cccc(C(=N)N)c2)cc1
[reply] 120000

[ask] What does the data say about its Ratio? Entry: CC(C)c1ccc(C(=O)Nc2cc(OCC(=O)O)ccc2NC(=O)c2cccc(C(=N)N)c2)cc1
[reply] 49000

[ask] Given the molecule COc1ccc(C(=O)Nc2ccccc2NC(=O)c2cccc(C(=N)N)c2)cc1 , what is its reported Ratio?
[reply] 750

----------
I'd be grateful if you could share measured K ass for these entries.
# experimental target: Coagulation factor X (Homo sapiens)
# test summary: Apparent association constant against human Coagulation factor X.

[ask] Fill blank: measured K ass of the compound CC(C)c1ccc(C(=O)Nc2ccccc2NC(=O)c2cccc(C(=N)N)c2)cc1 is ____.
[reply] 1.8e+08 l M-1

[ask] What does the data say about its K ass? Entry: CC(C)(C)c1ccc(C(=O)Nc2ccccc2C(=O)Nc2cccc(C(=N)N)c2)cc1
[reply] 3.5e+06 l M-1

[ask] # query: K ass of entry COc1ccc(C(=O)Nc2ccccc2NC(=O)c2cccc(C(=N)N)c2)cc1
[reply] 1.4e+07 l M-1

[ask] Reported K ass, compound CC(C)(C)c1ccc(C(=O)Nc2ccsc2C(=O)Nc2cccc(C(=N)N)c2)cc1 : ____
[reply] 1.2e+07 l M-1

[ask] Given the entry CC(C)c1ccc(C(=O)Nc2cc(OCC(=O)O)ccc2NC(=O)c2cccc(C(=N)N)c2)cc1 , report its measured K ass.
[reply] 3.4e+08 l M-1

[ask] Value lookup for K ass; key = COc1ccc(C(=O)Nc2ccccc2NC(=O)c2ccc(C(=N)N)cc2)cc1
[reply] 5.7e+06 l M-1
